PBM binding z-score: recorded values
Test system: LXRb homodimer (NR concentration 270 nM)
assay_details: PBM binding z-score (relative to random genomic background probes); higher = stronger binding; sequences stand for … in GC…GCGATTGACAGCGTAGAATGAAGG
value_type: PBM binding z-score

1) CGACAAAGTTCAACTAAGGTAACGTAAAGCACGC    1.92
2) CAAACTAGGTCGCGAAAGGTCAAAGTCGAATGAC    1.92
3) CCAGACAGGTGAGAAGGTAACTAAGCCTCGATTA    -0.426
4) ATATGTAGGTAATCGGGTCATTCAGTTTGCGCAT    0.648
5) TCATATAGGTAAACAGGTGGAAGTCCGTAAGTTA    0.0407
6) TCCATTAGTTGATTAGGGCAACCGAAACAGCGGA    0.366
7) ATACGAAGGTGATCGTGAGGTCGTTGATACTAAC    -0.403
8) CGTCCAAGATCAGCAGGTCAGTGAAAGCGACGTG    -0.306
9) CCGACTGGGGCAAAGGTTACTATACTCAGTACGA    -0.765
10) CGTCCAAGGTCAAAGGTCAGTGACGAGATGACGG    2.01
11) AATATTAGTTGAGACGAGGGCAACCGATAGGTTG    0.174
12) ACTACTAGTTGAGACGAGGGCAACCGATAGGTTG    -0.193
13) TCTTGTAGATCAACTGGAGGTTAAGAAAGATCGA    -0.276
14) TCTATTAGTTAAAGGGCAACCGACGAGTCCGTTT    0.427
15) CCGACTGGGGCATGAGGTTACCATAAGCCAGCCC    -1.09
16) AGAATGAGGTTATGCGTAGATCAGGGAAGAAAGT    -0.169
17) TCTCGGAGTACACGAAAGGTCAGAGCTCGACATC    -0.426
18) TCTATTAGTTGATTAGGGCAAACGAAACAGCGGA    0.369
19) AATACAGAGTCACTAGGCCAGAGTAGGTACGAAT    -0.252
20) GCTGCTAGGTCAACGGATGGTCAGCTAAAGCTCG    -0.253
21) GCAGACAGGTGAAACGCAGGTAACTCATGGTGGC    -1.24
22) AGAATGAGGTTACCAAAGATTAGGGAAACGCTTG    -0.268
23) CCTTACGGGTCACTGACAGGTTATAGGATTTGGA    -0.182
24) AGAATGAGGTTATACGTAGTTCAGGGAAGAAAGT    -0.31
25) CCGAGTAGGTTATGGGGCATGCAGGCAACGGTGA    -0.337
26) ACAACGAGGGCACGCTGAGTTGATAGCAGAGTAG    -0.476
27) TCTTGTAGATCAAAGGCTAAGAAAGCCGAAGCCT    -0.625
28) TCTTGTATATCAACAGGAGGTTAAGAAAGATCGA    0.307
29) ATCGAAATGTCGAGGTGAGTATAGAGAAAGGGAA    -0.363
30) ATCTCTAGGTAAATATAGTTCAGTGAATGCAAAT    1.12
31) CGTACGAGGGCATGAGTTGATAGCAAATGCCGAT    -0.608
32) CCTGCTGGGCCATTCAGAGGTCATTGATCATATG    0.198
33) CTACCAAGGTGAACAATGTCGTTGATTACTATTC    0.00375
34) GCTCGGAGGACAAGGACAGAGCTTTGTCCGTAGA    -1.44
35) TAGCCTAGGTCATTGGGCCAGTATTGTACGCATC    0.642
36) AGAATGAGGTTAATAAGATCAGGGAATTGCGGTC    0.00596
37) CAAACTAGGTCAAGAAAGGTCAAAGTCGAATGAC    2.48
38) TCTGCTAGGTCAACGATGGTCAGCTAGTCTGCTA    -0.445
39) CAGACTGGGGCAAGGTTACCATAACGCACAGCCA    -0.19
40) AATAGCAGGCCAAGTTTGGGTCACTCAAACAAAG    -0.947
41) CCTAGCAGGCCTATCTGGGTCACTCAAGGCTTGA    -1.2
42) TCTATTAGTTGATTAGCGCAACCGAAACAGCGGA    0.632
43) CTAACTAGGTCAAAGGTCAAAGTCGAGCCAACCA    2.96
44) TCTTGCAGGCCAGAGGGTCACTCAAGAGGTACGG    -0.52
45) GCTTACGGGTCAAAGCTTATAGCATGAATAGAAT    0.156
46) GCGACTGGGGCATCAGCAGGTTAACATAACTTAA    -0.643
47) ACATGTAGGTTAGCTGGGGTCATTCAGACTAGGC    1.56
48) CCTAGCAGGCCAGGGTCACTCCAGCATTTCGCTT    -0.731
49) ACAAACAGGTGATGAAGGTAACTCAGGCTATCAT    0.327
50) CCAGCTAGGTCATGGTCAGCTAATCTACAGTATG    -0.361
51) GCTTATGGGTCAAAGGTTATAGCATGAATAGAAT    0.477

###

Tested on: PXR homodimer (NR concentration 270 nM)
assay_details: PBM binding z-score (relative to random genomic background probes); higher = stronger binding; sequences stand for … in GC…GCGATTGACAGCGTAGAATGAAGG
// PBM binding z-score lookup, one value per entry
value_type: PBM binding z-score

1. GGAAGGAGGGCAAAGTTGATAGCATCTGTCGACG    1.62
2. GCTCGGAGGACAATGTCAGAGCTTTGTCCGTAGA    -0.648
3. AGTCAAAGTTCATCTAGGTACCGTAAGATATGCT    5.43
4. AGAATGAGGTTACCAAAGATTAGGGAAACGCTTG    -0.168
5. CCTATTATTTGACCATAAGGGCAACCGAAGCTCG    2.77
6. GCTTACGGGTCAAAGGTTATAGCTTGAATAGAAT    0.119

###

Tested on: PPARg:RXRa DBDmut IVT, anti-RXR (DBD mutation: RXRa K156A/R161A, NR concentration 270 nM, RXRa partner concentration 90 nM)
assay_details: PBM binding z-score (relative to random genomic background probes); higher = stronger binding; sequences stand for … in GC…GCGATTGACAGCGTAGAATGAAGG
value_type: PBM binding z-score

1. TCTTGTTGATCAACAGGAGGTTAAGAAAGATCGA    0.718
2. AGAATGAGGTTAAGACCAGGGAAACAGAATACAT    2.74
3. CGTCAAAGTTCAACCAAGGTAACGTAAAGCACGC    0.703
4. ACTAGCAGGCCAAGTTTGGGTCACTGAAACAAAG    0.913
5. CCTACTAGGCCAAGGTCATTGATCAGTCAAAGCA    5.34
6. CCGAGAAGGTTATGGGGCATTCAGGCAACGGTGA    0.959
7. CAGCCCAGGTCAGGGCCAGTATAGGAGGAACGTT    0.375
8. CCTACTGGGCCAAAAACGTCATTGATGCCGATAA    2.89
9. GCATATAGGTAATACAAGGTGATAGTCCGATTGT    4.05
10. ACTATTAGTTGAGACGAGGGCTACCGATAGGTTG    0.458
11. TATACAGGGTCAAACGCCAGAGTACGAATGTCGA    2.52
12. ATCTCTAGGTAACCAAGTTCAGAGAATGCCGAAC    3.4
13. ACAGACAGGTGAGTGGAGGTAACTCAGCTGGACG    0.56
14. CCTAGCAAGCCAATCTGGGTCACTCAAGGCTTGA    3.85
15. TCTCGTAGATCAGCAGGTTAAGAAAGCTGGCCAA    1.33
16. GCTATTAGTTGATAGGGCAACCGAATGATTCTCG    0.375
17. AGTCAAAGTTCACTAGGTGACGTAAGATTCAGCT    3.75
18. CCTTACGGGTCACCGACAGGTTATAGCATTTGGA    2.51
19. TTACCAAGGTGAGCTGAGGTTGTTGATCCAACTC    1.22
20. CGAACGAGGGCATGCGTTGATAGCAAATGCCGAT    2.51
21. GATACAGGGTCAGTTAGAGGCCAGAGTATGGAAA    1.02
22. CTACCAAGGTGAACAACGTCGTTGATTACTATTC    2.88
23. CCGACTGGGGAAAAGGTTACCATACTCAGTACGA    0.816
24. ACAGACAGGTGAGTGAAGGTAACTCTGCTGGACG    0.709
25. TGAATGAGGTTAACGATCAGGGAACGTGGCGTCG    2.53
26. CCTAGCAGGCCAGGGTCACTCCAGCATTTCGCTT    0.422
